# TESTED ON: Synaptic vesicular amine transporter (Rattus norvegicus, UniProt Q01827)
# Sequence (Q01827 whole entry): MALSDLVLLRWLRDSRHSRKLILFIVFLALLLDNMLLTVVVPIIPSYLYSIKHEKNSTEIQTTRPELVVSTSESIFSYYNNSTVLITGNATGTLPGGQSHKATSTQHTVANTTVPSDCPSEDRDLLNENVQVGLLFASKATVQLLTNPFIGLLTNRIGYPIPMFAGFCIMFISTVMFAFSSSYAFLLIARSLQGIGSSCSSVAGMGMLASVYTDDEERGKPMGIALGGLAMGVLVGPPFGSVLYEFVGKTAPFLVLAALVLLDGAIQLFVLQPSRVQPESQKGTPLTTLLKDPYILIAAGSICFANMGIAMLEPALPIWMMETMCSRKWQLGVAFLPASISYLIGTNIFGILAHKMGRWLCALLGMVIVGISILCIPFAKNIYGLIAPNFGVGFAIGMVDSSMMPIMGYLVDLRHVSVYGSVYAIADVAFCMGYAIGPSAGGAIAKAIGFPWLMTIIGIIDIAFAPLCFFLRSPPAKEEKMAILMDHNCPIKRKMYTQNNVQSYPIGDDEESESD
# PROCEDURE SUMMARY: Displacement of [125I]-iodovinyl-TBZ from VMAT2 in rat striatal homogenate after 60 mins by gamma counting
Kindly state pKi for each of the entries shown.
// pKi is dimensionless: -log10 of concentration (M)

Prompt: So what pKi did COc1cc2c(cc1OC)C1C[C@@H](O)C(CC3CCCC3)CN1CC2 (mixture of isomers) get with Synaptic vesicular amine transporter (Rattus norvegicus, UniProt Q01827)?
Completion: 6.64

Prompt: So what pKi did COc1cc2c(cc1OC)C1C[C@@H](O)C(CC3CCC3)CN1CC2 (mixture of isomers) get with Synaptic vesicular amine transporter (Rattus norvegicus, UniProt Q01827)?
Completion: 7.57

Prompt: So what pKi did COc1cc2c(cc1OCCCF)CCN1C[C@@H](CC(C)C)[C@H](O)C[C@H]21 get with Synaptic vesicular amine transporter (Rattus norvegicus, UniProt Q01827)?
Completion: 10.00

Prompt: So what pKi did COc1cc2c(cc1OC)C1C[C@@H](O)C(CC3CCCCC3)CN1CC2 (mixture of isomers) get with Synaptic vesicular amine transporter (Rattus norvegicus, UniProt Q01827)?
Completion: 6.86
